molecular target: Vasopressin V1a receptor (Rattus norvegicus, UniProt P30560); experiment: Anti-vasopressor activity at V1a receptor; conditions: read-out: pA2 (converted)
Sequence (P30560 whole entry): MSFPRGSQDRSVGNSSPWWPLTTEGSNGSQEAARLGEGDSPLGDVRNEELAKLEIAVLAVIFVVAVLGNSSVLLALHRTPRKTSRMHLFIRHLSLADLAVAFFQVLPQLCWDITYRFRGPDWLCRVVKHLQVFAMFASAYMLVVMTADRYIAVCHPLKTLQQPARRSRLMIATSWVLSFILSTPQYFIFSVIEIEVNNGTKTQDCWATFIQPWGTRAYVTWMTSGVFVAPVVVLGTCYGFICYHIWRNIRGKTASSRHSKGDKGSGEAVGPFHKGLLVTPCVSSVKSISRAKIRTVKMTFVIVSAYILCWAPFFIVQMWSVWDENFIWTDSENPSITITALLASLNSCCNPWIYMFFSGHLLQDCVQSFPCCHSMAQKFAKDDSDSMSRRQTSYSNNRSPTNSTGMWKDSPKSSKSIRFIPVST
Numbered stars: 1 amine (or outer) side, 2 acyl side, 3 side chain; on linkers, the order of the positions; unused ones are H or OH. Bridge positions count the residues as written; N and C are the ends. Square brackets hold non-standard residues; d marks the D form. Peptide text beside a SMILES is read from it. X2 = O=C(CC1(S[*:2])CCCCC1)[*:1]
measured.metric: Kb (nM)
Numbers only; they are read as nM.

| molecule | tested.target | Kb [nM] |
| --- | --- | --- |
| CC[C@H](C)[C@@H]1NC(=O)[C@H](Cc2ccc(OC)cc2)NC(=O)CC2(CCCCC2)SSC[C@@H](C(=O)N2CCC[C@H]2C(=O)N[C@@H](CCCN)C(=O)O)NC(=O)[C@H](CC(N)=O)NC(=O)[C@H]([C@@H](C)O)NC1=O | Vasopressin V1a receptor (Rattus norvegicus, UniProt P30560) | 331 |
| CCOc1ccc(C[C@H]2NC(=O)CC3(CCCCC3)SSC[C@H](C(=O)N3CCC[C@H]3C(=O)N[C@@H](CCCN=C(N)N)C(=O)NCC(N)=O)NC(=O)[C@H](CC(N)=O)NC(=O)[C@H](C(C)C)NC(=O)[C@H](Cc3ccccc3)NC2=O)cc1 | Vasopressin V1a receptor (Rattus norvegicus, UniProt P30560) | 8.71 |
| CC[C@H](C)[C@@H]1NC(=O)[C@@H](Cc2c[nH]c3ccccc23)NC(=O)CC2(CCCCC2)SSC[C@@H](C(=O)N2CCC[C@H]2C(=O)N[C@@H](CCCN=C(N)N)C(=O)NCC(N)=O)NC(=O)[C@H](CC(N)=O)NC(=O)[C@H](CCC(N)=O)NC1=O ([dW]IQNCPRG-NH2; linker N-5 via X2) | Vasopressin V1a receptor (Rattus norvegicus, UniProt P30560) | 27.5 |

The molecule CC[C@H](C)[C@@H]1NC(=O)[C@H](Cc2ccc(OC)cc2)NC(=O)CC2(CCCCC2)SSC[C@@H](C(=O)N2CCC[C@H]2C(=O)N[C@@H](CCCN)C(=O)NCC(N)=O)NC(=O)[C@H](CC(N)=O)NC(=O)[C@H](CCC(N)=O)NC1=O showed Kb equal to 11
